- targetSystem: human TAS1R2-P21L/TAS1R3-WT (Homo sapiens, UniProt Q7RTX0+Q8TE23, P21L)
- Construct: expressed in transfected cells; host or cells: HEK293T-Gα16gust44
- Sequence (Q8TE23 20-839 P21L): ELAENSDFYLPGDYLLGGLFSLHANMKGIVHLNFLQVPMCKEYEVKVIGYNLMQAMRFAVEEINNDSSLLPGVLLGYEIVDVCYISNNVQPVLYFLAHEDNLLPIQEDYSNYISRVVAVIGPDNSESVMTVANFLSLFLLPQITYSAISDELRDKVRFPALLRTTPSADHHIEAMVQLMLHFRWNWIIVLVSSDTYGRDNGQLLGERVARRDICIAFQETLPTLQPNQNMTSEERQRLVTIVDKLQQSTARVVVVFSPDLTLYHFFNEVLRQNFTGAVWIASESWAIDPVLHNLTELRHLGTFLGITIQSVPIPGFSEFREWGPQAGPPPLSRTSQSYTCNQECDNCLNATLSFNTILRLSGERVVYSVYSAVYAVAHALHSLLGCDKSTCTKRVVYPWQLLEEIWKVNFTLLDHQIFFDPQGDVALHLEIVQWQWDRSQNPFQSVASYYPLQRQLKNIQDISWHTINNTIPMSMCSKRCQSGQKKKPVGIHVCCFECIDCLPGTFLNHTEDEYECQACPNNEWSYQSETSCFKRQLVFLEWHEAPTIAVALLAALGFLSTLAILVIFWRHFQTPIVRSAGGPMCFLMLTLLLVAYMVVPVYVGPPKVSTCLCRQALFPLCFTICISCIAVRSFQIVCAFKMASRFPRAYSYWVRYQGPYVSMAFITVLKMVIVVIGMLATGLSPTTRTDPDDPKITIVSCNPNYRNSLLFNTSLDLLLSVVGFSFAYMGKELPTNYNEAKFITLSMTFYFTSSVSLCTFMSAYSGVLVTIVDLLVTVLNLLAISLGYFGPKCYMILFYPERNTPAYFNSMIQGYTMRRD
- Sequence (Q7RTX0 21-852): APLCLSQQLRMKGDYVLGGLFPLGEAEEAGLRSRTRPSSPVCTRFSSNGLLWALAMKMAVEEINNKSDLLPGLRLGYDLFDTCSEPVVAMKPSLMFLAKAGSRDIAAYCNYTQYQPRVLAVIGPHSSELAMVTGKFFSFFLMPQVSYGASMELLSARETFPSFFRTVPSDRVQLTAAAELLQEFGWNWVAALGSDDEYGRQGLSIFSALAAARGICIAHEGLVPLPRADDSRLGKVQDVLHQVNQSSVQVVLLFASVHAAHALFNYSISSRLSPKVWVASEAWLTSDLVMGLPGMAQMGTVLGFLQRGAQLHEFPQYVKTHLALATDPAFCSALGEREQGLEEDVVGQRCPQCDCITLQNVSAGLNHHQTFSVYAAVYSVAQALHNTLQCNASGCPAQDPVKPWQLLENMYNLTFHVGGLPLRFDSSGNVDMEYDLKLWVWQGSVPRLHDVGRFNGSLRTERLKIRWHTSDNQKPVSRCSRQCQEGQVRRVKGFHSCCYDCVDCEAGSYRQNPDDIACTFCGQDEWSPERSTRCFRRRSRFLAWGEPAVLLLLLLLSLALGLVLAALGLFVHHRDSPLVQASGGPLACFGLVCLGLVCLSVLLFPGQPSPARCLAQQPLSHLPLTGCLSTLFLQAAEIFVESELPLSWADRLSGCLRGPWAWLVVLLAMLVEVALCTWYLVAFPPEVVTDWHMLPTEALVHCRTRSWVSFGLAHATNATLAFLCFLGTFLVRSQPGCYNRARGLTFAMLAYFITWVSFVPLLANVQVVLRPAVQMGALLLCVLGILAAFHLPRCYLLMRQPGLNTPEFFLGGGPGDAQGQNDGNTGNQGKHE
- measurementProtocol: Calcium mobilisation assay, TAS1R2 variant P21L with TAS1R3-WT
- Type: cell-based
- assaySetup: maximal signal amplitude
assayEndpoint: Max ΔF/F0
Reply with the value as a number alone.

Query block: Data request, read-out Max ΔF/F0, for OC[C@H]1O[C@H](O[C@]2(CCl)O[C@H](CCl)[C@@H](O)[C@@H]2O)[C@H](O)[C@@H](O)[C@H]1Cl [Sucralose]
Result block: 0.50
